- target.system: T1, human insulin-like growth factor-1 receptor (HIGF-1R) (human, UniProt P08069 31-1367)
- T1 construct: Detergent-solubilised receptor purified on WGA-agarose; also called HIGFIR
- T1 sequence (P08069 31-1367 limits assumed): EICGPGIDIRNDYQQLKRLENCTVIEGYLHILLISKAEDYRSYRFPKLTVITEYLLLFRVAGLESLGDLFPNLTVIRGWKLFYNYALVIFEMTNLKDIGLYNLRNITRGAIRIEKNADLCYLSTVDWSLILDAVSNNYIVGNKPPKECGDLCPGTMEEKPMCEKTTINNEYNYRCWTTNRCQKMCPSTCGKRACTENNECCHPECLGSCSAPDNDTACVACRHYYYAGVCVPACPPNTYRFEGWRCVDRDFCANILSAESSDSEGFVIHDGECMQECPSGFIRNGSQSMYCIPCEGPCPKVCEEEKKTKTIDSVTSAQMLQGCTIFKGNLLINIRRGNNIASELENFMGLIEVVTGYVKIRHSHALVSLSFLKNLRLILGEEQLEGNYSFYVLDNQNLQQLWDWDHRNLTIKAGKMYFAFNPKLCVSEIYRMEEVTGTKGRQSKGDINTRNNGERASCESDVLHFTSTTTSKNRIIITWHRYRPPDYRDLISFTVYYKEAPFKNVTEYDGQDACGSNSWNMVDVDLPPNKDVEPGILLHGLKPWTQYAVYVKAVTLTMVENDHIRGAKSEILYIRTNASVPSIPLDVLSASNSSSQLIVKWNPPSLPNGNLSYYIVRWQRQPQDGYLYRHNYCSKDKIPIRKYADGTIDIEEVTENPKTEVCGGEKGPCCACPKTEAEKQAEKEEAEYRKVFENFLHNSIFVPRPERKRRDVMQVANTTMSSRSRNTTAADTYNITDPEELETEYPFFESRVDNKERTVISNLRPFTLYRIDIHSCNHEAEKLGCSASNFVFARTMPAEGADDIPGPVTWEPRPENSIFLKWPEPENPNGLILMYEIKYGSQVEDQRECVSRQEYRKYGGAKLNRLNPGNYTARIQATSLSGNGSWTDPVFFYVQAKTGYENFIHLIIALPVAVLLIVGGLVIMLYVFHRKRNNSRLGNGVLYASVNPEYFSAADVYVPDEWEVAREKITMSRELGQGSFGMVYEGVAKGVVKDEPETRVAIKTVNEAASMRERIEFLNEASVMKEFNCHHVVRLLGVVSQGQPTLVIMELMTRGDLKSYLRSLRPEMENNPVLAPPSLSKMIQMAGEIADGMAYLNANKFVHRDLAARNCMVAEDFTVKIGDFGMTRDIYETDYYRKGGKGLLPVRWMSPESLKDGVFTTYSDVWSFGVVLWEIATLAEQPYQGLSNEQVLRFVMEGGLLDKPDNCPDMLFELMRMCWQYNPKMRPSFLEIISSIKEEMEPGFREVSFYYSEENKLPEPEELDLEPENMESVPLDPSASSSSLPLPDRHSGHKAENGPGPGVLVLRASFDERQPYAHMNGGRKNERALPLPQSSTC
- assay.notes: 125I-IGF-1 displacement, SPA-assay
Where no end group is shown, it is not given here. [ ]: non-standard residue; d: D form. The star is where a group is joined. Biotin = O=C1N[C@H]2[C@H](CS[C@H]2CCCCC(=O)*)N1; AEEA = NCCOCCOCC(=O)O
measurement.kind: pKd
In simple prose, pKd is minus the logarithm base ten of a concentration in moles per litre.

binder	pKd
GVGGWRYGSFPSFSSQTRS [F431]	8.77
VQDDCRGRPCGDADSFYEWFDQGYGSSSRRAPQT [F404]	4.21
Ac-SFYSCLESLVTGPKERSRGQWEGCRR (cysteine pairing not given here) [F306]	7.00
VQDDCRGRPCGDADSFYEWFDQQAS [F263]	5.60
{Biotin-AEEA}-SFYSCLESLVQGPAEKSRGQWEGCRK (cysteine pairing not given here) [F414]	4.19
RQFYGCLLDLSLGVPSFGWRRRCITAR [F407]	4.16
SQDQVGASLGSAISGRGGLSNFYSCLTSLATDTTRPSRRPWERCR [F397]	4.55

Please find the next binder below.
Lookup: For F254 (cysteine pairing not given here, 111 conjugated by POX) peptide: ESFYSCLESLVAGPAEKSRGQWEGCR[AEEA][AEEA]GYSWLRDVLMEKQAQLKREGSVGRQE , what is its reported pKd?
Found: 4.09

Reference source for all entries: patent US20110039779A1
